- assay-summary: Absorbance and molar absorptivity of sunscreen compounds
- Format: physicochemical
- condition-notes: 70% ethanol/30% H2O solution
Reported ελMax values for the following molecules.
parameter: ελMax (M⁻¹ cm⁻¹)

INSERT INTO results (molecule, parameter, result) VALUES
  ('COc1ccc(C(=O)CC(=O)c2ccc(C(C)(C)C)cc2)cc1 [Avobenzone, reference compound]', 'ελMax', 25000),
  ('CCCCC(CC)COC(=O)C(=Cc1cc(OC)c(O)c(OC)c1)C(=O)OCC(CC)CCCC (centres unmarked)', 'ελMax', 16000),
  ('CCOC(=O)C(=Cc1cc(OC)c(OC)c(OC)c1)C(=O)OCC [2/1, reference compound]', 'ελMax', 20000),
  ('CCOC(=O)C(=Cc1cc(OC)c(O)c(OC)c1)C(=O)OCC', 'ελMax', 12000),
  ('CCOC(=O)C(=Cc1cc(OC)c(O)c(OC)c1)C(C)=O', 'ελMax', 19000);

====

- assay-summary: physchem
- Format: physicochemical
parameter: half-life

INSERT INTO measurements (compound, result) VALUES
  ('COc1ccc(C(=O)CC(=O)c2ccc(C(C)(C)C)cc2)cc1 [Avobenzone, reference compound]', '~3 h');

====

- assay-summary: Absorbance and molar absorptivity of sunscreen compounds
- Format: physicochemical
- condition-notes: 70% ethanol/30% H2O solution
parameter: λMax (nm)

INSERT INTO assay_data (molecule, parameter, unit_of_measurement, result) VALUES
  ('CCOC(=O)C(C)=Cc1cc(OC)c(O)c(OC)c1 [2/7]', 'λMax', 'nm', 314),
  ('CCOC(=O)C(=Cc1cc(OC)c(O)c(OC)c1)C(=O)OCC [2/4]', 'λMax', 'nm', 338),
  ('COc1ccc(C(=O)CC(=O)c2ccc(C(C)(C)C)cc2)cc1 [Avobenzone, reference compound]', 'λMax', 'nm', 360),
  ('CCOC(=O)C(=Cc1cc(OC)c(O)c(OC)c1)C(C)=O [2/5]', 'λMax', 'nm', 348),
  ('CCCCC(CC)COC(=O)C(=Cc1cc(OC)c(O)c(OC)c1)C(=O)OCC(CC)CCCC (stereo not drawn) [2/8]', 'λMax', 'nm', 340),
  ('CCOC(=O)C(=Cc1cc(OC)c(OC)c(OC)c1)C(=O)OCC [2/1, reference compound]', 'λMax', 'nm', 313);

Source listed as patent US6602515B2.
